Just for reference, patent US8946142B2 is where these values come from.

# system_name: human AT1R (Homo sapiens, UniProt P30556)
# Sequence (P30556 whole entry): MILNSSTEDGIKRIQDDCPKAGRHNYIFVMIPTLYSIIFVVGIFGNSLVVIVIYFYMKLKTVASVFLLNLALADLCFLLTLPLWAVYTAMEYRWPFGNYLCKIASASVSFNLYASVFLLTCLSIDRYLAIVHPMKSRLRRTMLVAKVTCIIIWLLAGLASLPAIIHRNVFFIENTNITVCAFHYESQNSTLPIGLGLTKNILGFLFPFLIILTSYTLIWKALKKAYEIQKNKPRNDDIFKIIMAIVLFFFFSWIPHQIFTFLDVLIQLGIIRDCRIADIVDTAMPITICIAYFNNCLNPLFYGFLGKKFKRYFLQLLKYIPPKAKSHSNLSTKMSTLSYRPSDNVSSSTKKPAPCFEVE
# experiment_notes: IP1 accumulation assay (IP1 G-protein assay), human AT1R
# Type: cell-based
# condition_parameters: read-out: Span (relative to hAngII)
Where a SMILES comes first, the peptide text is derived from it. [ ]: non-standard residue; d: D form. Ac6c = NC1(C(=O)O)CCCCC1; Sar = CNCC(=O)O
Kindly state Emax for each of the entries shown.

GET /value?item= CNCC(=O)N[C@@H](CCCNC(=N)N)C(=O)N[C@H](C(=O)N[C@@H](Cc1ccc(O)cc1)C(=O)NC1(C(=O)N[C@@H](Cc2c[nH]cn2)C(=O)N2CCC[C@H]2C(=O)N[C@@H](CC(C)C)C(=O)O)CCCCC1)C(C)C [SEQ ID NO: 12, Sar-Arg-Val-Tyr-cyHex-His-Pro-Leu] (H-[Sar]RVY[Ac6c]HPL-OH) &field=Emax returns < 103%

Value of Emax reported for the compound CNCC(=O)N[C@@H](CCCNC(=N)N)C(=O)N[C@H](C(=O)N[C@@H](Cc1ccc(O)cc1)C(=O)NC1(C(=O)N[C@@H](Cc2c[nH]cn2)C(=O)N2CCC[C@H]2C(=O)N[C@@H](Cc2c[nH]c3ccccc23)C(=O)O)CCCCC1)C(C)C [SEQ ID NO: 54, Sar-Arg-Val-Tyr-cyHex-His-Pro-Trp] (H-[Sar]RVY[Ac6c]HPW-OH) is < 103%
